Assay: folding stability dG unfold from chymotrypsin proteolysis; higher = more stable
Criterion: folding stability dG unfold meeting or surpassing 0.6 kcal/mol. Met: 1. Not met: -1.

Worked cases, answers included:
* SAGGSAITLEDIRNMPIEEIAKEMQDHFPNGQKQPIEFEYPDGRKLRIKAEYPPNGEPKIDIEPVDSAGGSA [r15_857_TrROS] | -1
* SAGGSAGGSAGGIWITMRPDNPDEFIDALRKKGKIRIVEVEPKNGNVIMRVTLDGQPLTSAGGSAGGSAGGS [r10_695_TrROS] | -1
* SAGGSAGGSAGMYYVIKRPGKVEILPEEEVPKVIEEDPNVEVKKFDSEEEAKKALEELLKSAGGSAGGSAGG [r11_60_JUSTAS] | 1
* SAGGSAGGSAGGSAPPKVEIEVTVLVKDEDGRLYVFKAKATFDLETNELTVEVEVYELPSAGGSAGGSAGGS [r4_445_TrROS_Hall] | 1

Would you say SMEPPVPKIKARLVEVREEGERPRALFEIEEIEDAPPEIEELFKRGAKIEVEIPPDYPLKEDEEIEVDPLSA [r9_557_TrMRF] shows folding stability dG unfold at minimum 0.6 kcal/mol?
1

Now this one: SMPGVRVRLYTVRVKTPEGGELTAPIAVPAELFTEEEIRELVREAFPDAEDVEIEPAVLELPPAPGLLTASA [r9_841_TrMRF]
1

// repeat for SAGGSAGGSAKKTLTVKPGQTVTVKNKKTGKTYTATVEKDKDGNLTVKLENGKTYTINLKDLSAGGSAGGSA [r18_169_TrROS_Hall] and report
1

And then SAGGGLSPDTPVNYVVFVELPNGERRTFNVPGPAGRPEVAIAIAEKLREEGYEVKAIFPGEGVIVVGSAGGS [r8_497_TrMRF] , what is it?
1

Same question for SAGGSAGGSAGVEINIFMPSWEQAKHRAKSIARELRERGLPPNAEIKIKIHPIDPEDMGPSAGGSAGGSAGG [r17_180_TrROS] please.
-1

Try SAGGSAGGSAEYIVVNSDEQLKALKELGGVKEVERKENFVVVEFPDIPPELREKLLEVIKESAGGSAGGSAG [r3_398_TrMRF] next.
-1

Check SAGGSAKKDGTITIKIPVKAPKDKNGKVFKPSAEAIKAKFGELGFDFEIEEIKESETYLEIKIKVKSAGGSA [r15_225_TrMRF] too.
1

Do the same for SAGGSAGGLKPGDTVTLPIEIWIMHMETKKDPNGDPEPRMEPYPYRIPITIPADDLNDGKITLTSAGGSAGG [r6_138_TrROS] please
-1

Can you handle SAGGSAGGSRKTILFRFPDGMMIKISLEENPNGNKRVRVTVYNPDNGKKRRMPADELPPNAKISAGGSAGGS [r12_797_TrROS] next?
1

What do we get for SAGGSAGGGMTGATPTPRTVPLPGDRTATVYERPETGELLVELPGRRLRVSPAALAAGEVALEASAGGSAGG [r6_940_JUSTAS] ?
-1

====

Test: folding stability dG unfold from chymotrypsin proteolysis; higher = more stable
What folding stability dG unfold was measured for each of the following?
Numbers only, in kcal/mol.

For each entry beneath this line, provide reported folding stability dG unfold.
1. SAGDAIADLLKEAGFEIDSVDSIEPTDGSYVIGFKFEFPNGWYMEITIWIDPNNPDKIEIDIKMQPPDESAG [r5_683_TrROS]
2. SAGMGIVEALRRELEAAGLDVRVSATVEPLPDLGYVLITVHVEVRNENGEWVPLGPLTILLPVEEAERLSAG [r5_413_TrMRF]
3. SAGMKITISYDEAKGIATVTLYEERPVETPNGPVTLRRKVATVTIPYTSLEEAKKQAEEAAKALLEKLSSAG [r5_956_JUSTAS]
4. SAGGSAGGSAKKITVEITIEVNGKKYKVKAEIELDEETKTLTIKVTFPDGTEFEFTFKLPEESAGGSAGGSA [r18_239_TrROS_Hall]

[4.43, 2.43, 5.04, 5.72]

For every item below, please supply its folding stability dG unfold.
1. SAGSPVVIKVSKVDSSGNWTLLEEIPIPPSEVSGVELVGDSLKILPPGSGGSYTFTIENSTVTVSIEESAGG [r19_408_JUSTAS]
2. SAGGSAGGSAGGLPPGAKVKVEIEISYDDPFSGPTNEYNSFPVELNFEPPEPIPTDPRLNSAGGSAGGSAGG [r7_522_TrMRF]
3. SAGGSAGGSAKMVIVNITLKNKDGKEFTISIEADPSVIKNIIKKLFNAKINKIEIYPLSEALSAGGSAGGSA [r18_107_TrMRF]
4. SAGGSAGGSAMKIEIEVDPKTNVIYIRVNGLVYRFTKSEDGYIYIEVYDKNGKLIETFRLKLSAGGSAGGSA [r18_333_TrROS_Hall]

1. 1.27
2. -1.38
3. 2.21
4. 4.83

Batch request: folding stability dG unfold for each of the following sequences.
1. MEIIKKLKIPDYEIVSVKTKKIGNKVIVVVVLKKEKEYYVIVAEINPETKEIKIISIKKLKENETLEDFISS [r1_383_TrMRF]
2. SAGGSAGGMLSPEVLEDPEKVIEFLKKMIPGLKIVVPPDAPPEVVEAAAKLAEETGIPVEIVVGSAGGSAGG [r6_129_TrMRF]

[3.95, -0.539]

# map each sequence to its folding stability dG unfold
1. SAGGSAGGSKKVKVTIEYDKETGVVKVTVEDPETGEKYTVTAKFEFDKNGKLVKVEVVSIEKESAGGSAGGS [r12_791_TrROS_Hall]
2. SALPNLKIEITLNEDGTITITVTANGEVIATATLTVTLPPPPVEKEVLDANGNKRTVRYDAKTGKAEVFDSA [r9_343_TrROS_Hall]
3. SPKIHIFIKGSIEEAVDFIRKFFPGLPIHVFDDPEQAEERAKNGDIVIAIGDEEYANRYAKKYNVPVIYISA [r9_380_TrROS]
4. SAGGSAGGSAGGSPGNYREVEIEFRDPDDNGKEVKIEIWVQPGMPEEQIKEFVRELLRRSAGGSAGGSAGGS [r4_442_TrROS]

1: 3.94; 2: 0.065; 3: 3.34; 4: 1.4

====

Assay: folding stability dG unfold from chymotrypsin proteolysis; higher = more stable
Measurement Label: folding stability dG unfold
# include the unit after the value

• SAGGSAGGSAGGPKAPGDKAVPATVEVRVTEYAVVPGLGEKLEKLPEKTFKATFVFFNKSAGGSAGGSAGGS [r10_122_TrMRF] = 0.611 kcal/mol
• SAGMNTITFEYKTKDHYVKIDVQVYPPNEGYIRISIEIYNKDGEPKKEVKITIPAPPGDPAVRDFLDQFSAG [r5_964_TrROS] = 2.74 kcal/mol

List reported folding stability dG unfold for each of these sequences:
1. SAGGSAGGSKLKPFPIKLPGDLSMTIVELPEDPRFIVTVWHPDGDKPIDSIEFEPDEFEANVGSAGGSAGGS [r20_190_TrMRF]
2. SAGGSMLVTVKFKTLPDGTVDHNPKLLAKVDGPEPDPADPATVRLPVDPAVVAQWPEEVAEEMEILASAGGS [r16_328_JUSTAS]
3. SAGGMILKITIPKEDEEKAKELADELAKKLEEETGKPIKVKVKVEKNENGELTIVIEVDGKKIEIKLSAGGS [r16_356_TrROS_Hall]
4. SAGGSAGGMTVPITLPLDEYSPEEVEAKIKAIREEIEKKNPDKKISINVTLVPQPPEPTPENLRSAGGSAGG [r6_729_JUSTAS]
5. SAGGSAGGSAGSMIEEAVEAAKASGDPDVTVDLETPEGRVTVTVTVDPATGTVTVTTSPESAGGSAGGSAGG [r17_475_JUSTAS]

0.793 kcal/mol
0.155 kcal/mol
0.444 kcal/mol
0.517 kcal/mol
2.21 kcal/mol

====

Test: folding stability dG unfold from chymotrypsin proteolysis; higher = more stable
Measurement Label: folding stability dG unfold (kcal/mol)
Give bare numbers, in kcal/mol.

- SMKTITIPADTLSPEEIEALLKELGFDPEKIKISTEGDKLVVTVPDMIVFLTPPPPVPTVPPTNPERLAALS [r1_57_JUSTAS]: -0.141
- SAGGSASSMPVTLTLLLTRPDGTPLTLPFEAETLEEAIERGTALAQELIAELGDPNMKITGLEVVPSAGGSA [r15_698_JUSTAS]: 1.44
- SAGGSASGYYTTTTVEIEPEGDTLTTVTTTTLGVPVTFDPVNNTLTLNLPPDQSLVTTTTVTEVAASAGGSA [r15_1040_JUSTAS]: 0.857
- SAGGSAGGSAGGMSTVVEESFYPEERVLRRTTTTVEEEGVTTEPSVYTVEPGDPNVLTPASAGGSAGGSAGG [r7_866_JUSTAS]: 0.0822
- SWQIKEVFPLPNGMRIKVYIHPDGYVQVSIRMYRPNPNDGKPQRQRFSITVPLPPGKPPSIDDILDYILNSA [r9_614_TrROS]: 2.24

Hello, I would appreciate it if you could give folding stability dG unfold for each entry below.
1. SAGGSAGGSAGGTITLPNGAKVTRIEFLPDGTLRVEAVVETDGGPVTVEITLPVYPSLATSAGGSAGGSAGG [r7_37_TrMRF]
2. SAAMLFEKKTGIKVDVSLVPPEQISQLPPSYTVTPEGDVVVVTTVTTLPLSSYPVKLPPVYDPNTLKLLSAG [r14_126_JUSTAS]
3. SAGGSASNIKTEEKEYPDGKVVVKYSSDPNITYVYYYPPGGLELVETLDSNGNVISKKLVPKGKLISAGGSA [r15_419_JUSTAS]
4. SAGGMPEGMVVLRIRVRVEKVEVRRDPAVPGRVSRRVEVREVEIELVVDSREALEALRELGFEIEEVSAGGS [r8_482_TrROS_Hall]
5. SMSVSTSTEKLPTDLYITEKEIKIEPVDPTKNVYRVTVKTTIVDKNGNVVKEEEKEEIIPLSELEKRIKSSA [r9_234_JUSTAS]
6. SAKVITIKLKIKVKTEEELEKAKELADELAKKLAEEGKKVKVEVVKIEVEENENGEKTVTIEIKIYLEPSAG [r14_48_TrROS_Hall]

1: 2.13; 2: -0.376; 3: 0.959; 4: 4.43; 5: 1.61; 6: 3.72

Fill in folding stability dG unfold for each of the 3 sequences listed.
1. SAMIEIEAVFPPNVSLEEAVEAVKAEIESKGFEILEVKVEKLPNGEVLVRAVVKVKPEMPPEEIKKLAESAG [r14_110_TrMRF]
2. SAGGSAGGKKIKIEIIYDKENNKLYIYVVDENTKKVYRYEFNKNGKLIKVEPVKEVKPGEVIPLSAGGSAGG [r6_148_TrROS_Hall]
3. SAIKLPDGFEIKEVEFTPDGNVTIKIEVKKYSFMIYNPDNGQIQHIPPGKEQEITMPPNEPMRIWVIKPSAG [r14_385_TrROS]

2.44
2.49
1.58

Hey, just so you know, these numbers are from the supplement of paper PMC12764529.
